tested on: MS2 coat protein; test: apparent KD of MS2 coat protein; designed switch direction (-1 OFF switch, 1 ON switch): -1; higher = weaker reporter binding; settings: input ligand: FMN 200 uM
MEASUREMENT_TYPE: apparent KD of MS2 coat protein (µM)
Number only, in µM; omit the unit.

Query for MS2 coat protein: what apparent KD of MS2 coat protein does the record show for AGUCGAAAGACAAAUAAAAACAUGAGGAUCACCCAUGUAAUGGGUGAAAACAAGCUCACCGUUCGUCUUAAAGAAAA [JL turnoff v1 57] (Eterna round: R96, puzzle: Sensor v2, turn-off variant) ?
0.607

Query for MS2 coat protein: what apparent KD of MS2 coat protein does the record show for GGCGUGUAUUAGGAUAUUGGAGGGAGGGAGGGCUAAGAAGGAGUAACAUGAGGAUCACCCAUGUAGAGGAAGGG [RHig 2] (Eterna round: R97, puzzle: Exclusion 6) ?
0.0631

Query for MS2 coat protein: what apparent KD of MS2 coat protein does the record show for AAACCGGGCGCACCUCAGUCACAUGAGGAUCACCCAUGUUCUGAGGAUAUGCAUCCAAACGGAACGCAGAAGGCGGAACGUAAC [Bibidianer] (Eterna round: R96, puzzle: Exclusion NG 3) ?
0.0105

Next:
Query for MS2 coat protein: what apparent KD of MS2 coat protein does the record show for GCGAGCAGACGGAGAUCCAACAUGAGGAUCACCCAUGUCUCGCAAGCUUUUUGCUUGUCUUAUCCUCCUCUGUUUAG [Design #8] (Eterna round: R97, puzzle: Sensor, turn-off variant 1) ?
0.0813

Query for MS2 coat protein: what apparent KD of MS2 coat protein does the record show for AAUAAAAGCGAGGAUAUCGUAUCGGAAACGAUACGAGAAGGCGUAACAUGAGGAUCACCCAUGUGUCCUCAAUA [Mat - Exclusion 6 - Eli Mod - D8] (Eterna round: R97, puzzle: Exclusion 6) ?
1.26
